- Tested on: HL-1
- protocol: relative cell viability (CellTiter-Glo) vs DMSO control (% of DMSO control); higher = more viable cells
- measurement context: oxygen condition: normoxia 72 h; 40 nM
Where a name gives a salt, the structure may show the parent alone.
reported endpoint: relative cell viability

Task item: Tell me the measured relative cell viability of CC1=C(C(=O)OC(C)C)C(c2cccc([N+](=O)[O-])c2)C(C(=O)OC2CN(C(c3ccccc3)c3ccccc3)C2)=C(N)N1 (configuration not stated) , please.
Reply: 109

Task item: For CN(Cc1ccc(C(C)(C)C)cc1)Cc1cccc2ccccc12 [Butenafine HCl] then?
Reply: 104

Task item: For CN(C)CCc1c[nH]c2ccc(Cn3cncn3)cc12 [Rizatriptan Benzoate] then?
Reply: 109

Task item: For CC(=O)OCC(=O)[C@@]12N=C(C)O[C@@H]1C[C@H]1[C@@H]3CCC4=CC(=O)C=C[C@]4(C)[C@H]3[C@@H](O)C[C@@]12C then?
Reply: 89.6

Kindly give each listed record's relative cell viability.
1. CCCCN(CCCC)CCCOC(=O)c1ccc(N)cc1
2. C[C@@](Cc1ccc(O)c(O)c1)(NN)C(=O)O
3. CC(=O)[C@H]1CC[C@H]2[C@@H]3CC=C4C[C@@H](O)CC[C@]4(C)[C@H]3CC[C@]12C
4. CCOC(=O)C1=C(C)NC(C)=C(C(=O)OC)C1c1cccc([N+](=O)[O-])c1 (configuration not stated)

Reply:
1. 103
2. 96.4
3. 101
4. 107

----------
- System: HL-1
- protocol: relative cell viability (CellTiter-Glo) vs DMSO control (% of DMSO control); higher = more viable cells
- measurement context: oxygen condition: hypoxia 48 h (1% O2) + reoxygenation 24 h; 40 nM
Structures can show the parent of a compound that is named as a salt.
I'd be grateful if you could share measured relative cell viability for these entries.
Answers are plain numbers.

// worked examples, relative cell viability included
Task item: Tell me the measured relative cell viability of CC1COc2c(N3CCN(C)CC3)c(F)cc3c(=O)c(C(=O)O)cn1c23 (centres undefined) , please.
Reply: 99.3

Task item: For CCOCC(O)COc1ccc(NC(=O)CC[S+](C)C)cc1 (centres undefined) [Suplatast tosylate] then?
Reply: 106

Kindly give each listed record's relative cell viability.
1. OC(CCN1CCCCC1)(c1ccccc1)C1CC2C=CC1C2 (centres undefined) [Biperiden HCl]
2. Nc1nc2[nH]cnc2c(=S)[nH]1
3. Nc1ccn([C@@H]2O[C@H](CO)[C@@H](O)C2(F)F)c(=O)n1 [Gemcitabine HCl]
4. CC1=CC(=O)c2ccccc2C1=O
5. Cc1ccc(Nc2nccc(N(C)c3ccc4c(C)n(C)nc4c3)n2)cc1S(N)(=O)=O [Pazopanib HCl]

Reply:
106
97.1
3.53
100
94.1

Kindly give each listed record's relative cell viability.
1. Clc1ccc2nsnc2c1NC1=NCCN1 [Tizanidine HCl]
2. CCCCc1oc2ccc(NS(C)(=O)=O)cc2c1C(=O)c1ccc(OCCCN(CCCC)CCCC)cc1 [Dronedarone HCl]
3. COc1ccc(CC2c3cc(OC)c(OC)cc3CC[N+]2(C)CCC(=O)OCCCCCOC(=O)CC[N+]2(C)CCc3cc(OC)c(OC)cc3C2Cc2ccc(OC)c(OC)c2)cc1OC (centres undefined) [Atracurium besylate]
4. CC(=O)Oc1ccc(C(c2ccc(OC(C)=O)cc2)c2ccccn2)cc1
5. CC(=O)OCC(=O)[C@@]1(O)CC[C@H]2[C@@H]3CCC4=CC(=O)CC[C@]4(C)[C@H]3C(=O)C[C@@]21C [Cortisone acetate]
6. NS(=O)(=O)c1cc2c(cc1Cl)NC(C(Cl)Cl)NS2(=O)=O (centres undefined) [Trichlormethiazide]

Reply:
99.5
99.9
104
103
99.7
109

Kindly give each listed record's relative cell viability.
1. CC/C(=C(/CC)c1ccc(O)cc1)c1ccc(O)cc1
2. CCOC(=O)[C@H](CCc1ccccc1)N[C@@H](C)C(=O)N1Cc2cc(OC)c(OC)cc2C[C@H]1C(=O)O [Moexipril HCl]
3. CN(C)CC/C=C1/c2ccccc2COc2ccc(CC(=O)O)cc21 [Olopatadine hydrochloride]
4. CC[C@@H](CO)NCCN[C@@H](CC)CO [Ethambutol HCl]
5. N=C(N)NC(=N)N1CCOCC1
6. C[C@H]1c2cccc(O)c2C(=O)C2=C(O)[C@]3(O)C(=O)C(C(N)=O)=C(O)[C@@H](N(C)C)[C@@H]3[C@@H](O)[C@@H]21 [Doxycycline HCl]
7. CC1=C(/C=C/C(C)=C/C=C/C(C)=C\C(=O)O)C(C)(C)CCC1

Reply:
1: 105; 2: 105; 3: 93; 4: 100; 5: 101; 6: 102; 7: 103

Kindly give each listed record's relative cell viability.
1. Cc1cccc(C)c1OCC(C)N (centres undefined) [Mexiletine HCl]
2. CNC[C@H](O)c1cccc(O)c1 [Phenylephrine HCl]
3. O=P(O)(O)C(O)(Cc1cccnc1)P(=O)(O)O [Risedronic acid]

Reply:
1: 108; 2: 110; 3: 94

Kindly give each listed record's relative cell viability.
1. CCN(CC)CCOC(=O)c1ccc(N)cc1
2. CCCC(CCC)C(=O)O [Valproic acid sodium salt]

Reply:
100
106

Kindly give each listed record's relative cell viability.
1. N=C(N)Nc1ccc(C(=O)Oc2ccc3cc(C(=N)N)ccc3c2)cc1 [Nafamostat mesylate]
2. C=C1/C(=C\C=C2/CCC[C@]3(C)[C@@H]([C@H](C)CCCC(C)(C)O)CC[C@@H]23)C[C@@H](O)C[C@@H]1O
3. CCOC(=O)[C@H](CCc1ccccc1)N[C@H]1CCc2ccccc2N(CC(=O)O)C1=O [Benazepril hydrochloride]
4. CN(C(=O)CN(CCO)CC(=O)N(C)C(C)(C)Cc1ccccc1)C(C)(C)Cc1ccccc1
5. C[N+](C)(C)CCCCCC[N+](C)(C)C [Hexamethonium bromide]
6. COc1ccc(CN(CCN(C)C)c2ccccn2)cc1 [Pyrilamine Maleate]

Reply:
[103, 90.8, 102, 102, 101, 102]

Kindly give each listed record's relative cell viability.
1. Cc1ccc(C)c(OCCCC(C)(C)C(=O)O)c1
2. CC(=O)O[C@H]1C[C@@H]2CC[C@@H]3[C@H](CC[C@@]4(C)[C@H]3C[C@H]([N+]3(C)CCCCC3)[C@@H]4OC(C)=O)[C@@]2(C)C[C@@H]1N1CCCCC1 [Vecuronium Bromide]
3. COC(=O)C1=C(C#N)NC(C)=C(C(=O)OC(C)C)C1c1cccc([N+](=O)[O-])c1 (centres undefined)

Reply:
1: 98.5; 2: 112; 3: 107

----------
- System: HL-1
- protocol: relative cell viability (CellTiter-Glo) vs DMSO control (% of DMSO control); higher = more viable cells
- measurement context: oxygen condition: normoxia 72 h; 200 nM
Structures can show the parent of a compound that is named as a salt.
Note to self: class = bucket of relative cell viability, per one: < 80; two: ≥ 80 and < 100; three: ≥ 100

Task item: # classify by relative cell viability band: Cc1nc(Nc2ncc(C(=O)Nc3c(C)cccc3Cl)s2)cc(N2CCN(CCO)CC2)n1
Reply: two

Others:
Task item: # classify by relative cell viability band: COc1cc(Nc2c(C#N)cnc3cc(OCCCN4CCN(C)CC4)c(OC)cc23)c(Cl)cc1Cl
Reply: three

Task item: For C=C1CC[C@H](O)C/C1=C/C=C1\CCC[C@]2(C)[C@@H]([C@H](C)CCCC(C)C)CC[C@@H]12 then?
Reply: one

Task item: For NS(=O)(=O)c1cc2c(cc1Cl)N=CNS2(=O)=O [Chlorothiazide] then?
Reply: three

Task item: For C#C[C@]1(O)CC[C@H]2[C@@H]3CCC4=CC(=O)CC[C@@H]4[C@H]3CC[C@@]21CC then?
Reply: three

Task item: For CC[C@H]1OC(=O)C[C@@H](O)[C@H](C)[C@@H](O[C@@H]2O[C@H](C)[C@@H](O[C@H]3C[C@@](C)(O)[C@@H](O)[C@H](C)O3)[C@H](N(C)C)[C@H]2O)[C@@H](CC=O)C[C@@H](C)C(=O)/C=C/C(C)=C/[C@@H]1CO[C@@H]1O[C@H](C)[C@@H](O)[C@@H](OC)[C@H]1OC [Tylosin tartrate] then?
Reply: two

Task item: For CC[C@]1(O)C[C@@H]2CN(CCc3c([nH]c4ccccc34)[C@@](C(=O)OC)(c3cc4c(cc3OC)N(C)[C@H]3[C@@](O)(C(=O)OC)[C@H](OC(C)=O)[C@]5(CC)C=CCN6CC[C@]43[C@@H]65)C2)C1 then?
Reply: one

Task item: For CC(C)C[C@H](NC(=O)[C@H](Cc1ccccc1)NC(=O)c1cnccn1)B(O)O then?
Reply: one

Task item: For CC1=C(/C=C/C(C)=C/C=C/C(C)=C/C=C/C=C(C)/C=C/C=C(C)/C=C/C2=C(C)CCCC2(C)C)C(C)(C)CCC1 then?
Reply: two
